assay remarks: BET inhibitor-based combinations targeting novel dependencies in MECOM-rearranged (r) AML: HNT-34 cell line (AID 2202234); also: nearly all actives have a fitted effect of over 35% in size
cond: HNT-34 AML viability, CellTiter-Glo luminescence, 48 h; series mostly up to 46 µM
Records with an inconclusive call do not appear. Calls of active or inactive are those of the source. Calls follow the shape of the dose curve; as a rule, active = well fitted inhibition curve with a large enough effect; inconclusive = small, poorly fitted or top-dose-only effect; inactive = no such curve, though single readings can be large or run the other way.
Allowed answers: 1.0 (active), 0.0 (inactive)

Reference set (4 entries):
# molecule, qualitative label
data = [
    ("CCN1CCN(Cc2ccc(-c3cc4c(N[C@H](C)c5ccccc5)ncnc4[nH]3)cc2)CC1", 1.0),
    ("COc1cc(C(=O)NC(N)=Nc2ccc(C)c(NC(=O)c3ccc(-c4ccccc4)cc3)c2)cc(OC)c1OC", 1.0),
    ("CN[C@@H](C)C(=O)N[C@H](C(=O)N1CCC[C@H]1C(=O)Nc1snnc1-c1ccccc1)C1CCCCC1", 0.0),
    ("COc1cc(OC)cc(N2CCN(C(=O)Nc3nc4cc(F)ccc4nc3OC)CC2)c1", 1.0),
]

Okay, now this molecule:
stdin: // outcome(item) with item = Clc1ccc(C(Cn2ccnc2)OCc2ccsc2Cl)c(Cl)c1 (stereo not given)
stdout: 1.0
